# TESTED_SYSTEM: Human α2δ-1 subunit of Cav2.2 calcium channel (Homo sapiens, UniProt P54289)
# Sequence (P54289 25-1103): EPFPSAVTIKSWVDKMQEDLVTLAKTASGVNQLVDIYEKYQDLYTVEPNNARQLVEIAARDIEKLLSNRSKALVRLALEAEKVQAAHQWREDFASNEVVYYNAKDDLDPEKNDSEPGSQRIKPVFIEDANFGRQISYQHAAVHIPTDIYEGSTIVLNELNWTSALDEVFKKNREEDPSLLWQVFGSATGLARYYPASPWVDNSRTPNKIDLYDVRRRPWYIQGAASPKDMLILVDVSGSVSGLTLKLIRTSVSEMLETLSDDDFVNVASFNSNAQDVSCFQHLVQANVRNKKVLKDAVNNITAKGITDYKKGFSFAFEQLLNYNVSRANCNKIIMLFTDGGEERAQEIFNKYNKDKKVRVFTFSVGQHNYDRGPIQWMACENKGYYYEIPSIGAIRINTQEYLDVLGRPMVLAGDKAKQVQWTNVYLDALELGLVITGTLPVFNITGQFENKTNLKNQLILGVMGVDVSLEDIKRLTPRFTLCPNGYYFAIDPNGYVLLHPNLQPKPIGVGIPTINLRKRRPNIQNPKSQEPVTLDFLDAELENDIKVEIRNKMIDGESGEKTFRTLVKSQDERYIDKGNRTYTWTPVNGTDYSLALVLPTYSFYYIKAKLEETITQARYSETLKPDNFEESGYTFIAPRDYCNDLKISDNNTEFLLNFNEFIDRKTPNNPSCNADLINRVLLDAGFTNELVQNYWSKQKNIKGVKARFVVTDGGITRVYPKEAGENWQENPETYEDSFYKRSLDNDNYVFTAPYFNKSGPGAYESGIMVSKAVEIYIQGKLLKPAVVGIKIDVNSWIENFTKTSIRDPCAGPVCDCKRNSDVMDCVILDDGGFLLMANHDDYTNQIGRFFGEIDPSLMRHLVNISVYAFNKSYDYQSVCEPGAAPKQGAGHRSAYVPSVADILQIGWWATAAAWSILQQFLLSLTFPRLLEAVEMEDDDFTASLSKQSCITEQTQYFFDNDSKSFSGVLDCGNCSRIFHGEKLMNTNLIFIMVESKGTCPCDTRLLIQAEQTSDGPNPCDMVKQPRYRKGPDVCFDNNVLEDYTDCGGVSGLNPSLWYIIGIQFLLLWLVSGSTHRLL
# EXPERIMENTAL_DETAILS: Human α2δ-1 subunit of Cav2.2 calcium channel assay ([3H]-gabapentin binding)
# PROTOCOL_CONDITIONS: binding to the α2δ-1 subunit of voltage-gated calcium channels, expressed as Ki class; + also covers inhibition between 1% and 50%
Give measured Ki for each item. Keep answers brief.

For orientation, consider the following solved cases.
COMPOUND | Ki
CCC[C@H](c1nc2cc(F)c(Br)cc2c(=O)n1CC)N1CCCN(C)CC1 | > 5000 nM
CCCC(c1nc2cc(F)c(Br)cc2c(=O)n1CC)N1CCCN(C)CC1 (stereo not drawn) | < 500 nM
CC[C@@H]1CCn2c(nc3ccc(Br)cc3c2=O)[C@H]1N1CCCN(C)CC1 | > 5000 nM

Batch lookup, Ki per entry.
1. CCC[C@H](c1nc2ccncc2c(=O)n1CC)N1CCNC[C@H](C)C1
2. CCC[C@H](c1nc2ncc(Br)cc2c(=O)n1CC)N1CCNC[C@H](C)C1
3. CCCC(c1nc2ccc(Br)cc2c(=O)n1CCC)N1CCCN(CC)CC1 (stereo not drawn)
4. CCC[C@H](c1nc2ccc(Br)cc2c(=O)n1CC)N1CCCN[C@@H](C)C1
5. CCCC(c1nc2ccc(-c3ccccc3)cc2c(=O)n1CC)N1CCCN(C)CC1 (stereo not drawn)
6. CCC[C@H](c1nc2c(F)cccc2c(=O)n1CC)N1CCCN(C)CC1

Response:
< 500 nM
< 500 nM
< 500 nM
< 500 nM
< 500 nM
< 500 nM

----------
Give measured pKi for each item. Keep answers brief.
# TESTED_SYSTEM: Human α2δ-1 subunit of Cav2.2 calcium channel (Homo sapiens, UniProt P54289)
# EXPERIMENTAL_DETAILS: Human α2δ-1 subunit of Cav2.2 calcium channel assay ([3H]-gabapentin binding)
# PROTOCOL_CONDITIONS: binding to the α2δ-1 subunit of voltage-gated calcium channels, expressed as Ki class; + also covers inhibition between 1% and 50%
pKi: −log10 of the molar value.

For orientation, consider the following solved cases.
COMPOUND | pKi
CCCC(c1nc2ccc(F)cc2c(=O)n1CC(C)C)N1CCCN(C)CC1 (stereo not drawn) | > 6.30
CCC[C@H](c1nc2cc(F)c(F)cc2c(=O)n1CC)N1CCCN[C@H](C)C1 | > 6.30
CCCC(c1nc2ccc(F)cc2c(=O)n1CC)C1CCCN(C)CC1 (stereo not drawn) | > 6.30
CCC[C@H](c1nc2ccc(F)cc2c(=O)n1CC1CC1)N1CCCN(CC)CC1 | > 6.30
CCC[C@@H](c1nc2ccc(Br)cc2c(=O)n1CC)N1CCCN[C@@H](C)C1 | < 5.30

Batch lookup, pKi per entry.
1. CCCC(c1nc2ncccc2c(=O)n1CC)N1CCCN(C)CC1 (stereo not drawn)
2. CCCC(c1nc2ccc(CC)cc2c(=O)n1CC)N1CCCN(C)CC1 (stereo not drawn)
3. CCCC(c1nc2cccnc2c(=O)n1CC)N1CCCNCC1 (stereo not drawn)

Response:
1. > 6.30
2. > 6.30
3. < 5.30

Batch lookup, pKi per entry.
1. CCC[C@H](c1nc2ccc(F)c(F)c2c(=O)n1CC)N1CCN[C@H](C)CC1
2. CCC[C@H](c1nc2ccc(Cl)cc2c(=O)n1C)N1CCCN[C@@H](C)C1
3. CCCC(c1nc2cc(Br)c(F)cc2c(=O)n1CCC)N1CCCN(C)CC1 (stereo not drawn)
4. CCC[C@H](c1nc2cc(F)c(OC)cc2c(=O)n1CC)N1CCN(C)C[C@H](C)C1
5. CCC[C@H](c1nc2ccc(F)cc2c(=O)n1Cc1ccoc1)N1CCCN(CC)CC1
6. CCCC(c1nc2ccc(Br)c(C)c2c(=O)n1CC)N1CCCN(C)CC1 (stereo not drawn)
7. CCCC(c1nc2c(Cl)cc(F)cc2c(=O)n1CC)N1CCCN(C)CC1 (stereo not drawn)
8. CCCC(c1nc2ccc(Br)cc2c(=O)n1CC)N1CCCN(CC)CC1 (stereo not drawn)

Response:
1: < 5.30; 2: > 6.30; 3: > 6.30; 4: > 6.30; 5: 5.30 to 6.30; 6: 5.30 to 6.30; 7: < 5.30; 8: > 6.30

Batch lookup, pKi per entry.
1. CCC[C@@H](c1nc2cc(F)c(Cl)cc2c(=O)n1CC)N1CCN(C)C[C@H](C)C1
2. CCCC(c1nc2ncc(Br)cc2c(=O)n1CC)N1CCCNCC1 (stereo not drawn)

Response:
1: < 5.30; 2: > 6.30
